- System: HB3
- Method: qHTS profiling for inhibitors of Plasmodium falciparum proliferation (AID 504749); further: nearly all actives have a fitted effect of over 60% in size
- Recorded Conditions: P. falciparum in erythrocytes, SYBR Green DNA, 72 h; series mostly up to 28.7 µM
Records with an inconclusive call do not appear. Calls of active or inactive are those of the source. The call rests on the fitted dose curve; in most records, active means well fitted inhibition curve with a large enough effect; inconclusive means small, poorly fitted or top-dose-only effect; inactive means flat fitted curve, though single readings scatter.
Outcome field: choose from True = active, False = inactive

Worked examples, 8 compounds total:
| Compound | Label Value |
| --- | --- |
| NCCCNCCSP(=O)(O)O | False |
| CN(C)CC[C@@H](c1ccc(Br)cc1)c1ccccn1 | False |
| C[N+](C)(C)CCOC(N)=O | False |
| Cc1cc(C)c(/C=C2\C(=O)Nc3ccccc32)[nH]1 | False |
| Cc1ccc(S(=O)(=O)NC(=O)NN2CCCCCC2)cc1 | False |
| Fc1ccc(C(c2ccc(F)cc2)N2CCN(C/C=C/c3ccccc3)CC2)cc1 | True |
| CN1CCN(CC(=O)N2c3ccccc3C(=O)Nc3cccnc32)CC1 | False |
| CN(C)CCOC(=O)COc1ccc(Cl)cc1 | False |

In: Which outcome was entered for the compound CCN1CCC[C@H]1CNC(=O)c1c(O)c(Cl)cc(Cl)c1OC in this test?
Out: False

In: Test call for this compound, please: COC(=O)C1=C(C)NC(C)=C(C(=O)OC(C)(C)CN(C)CCC(c2ccccc2)c2ccccc2)C1c1cccc([N+](=O)[O-])c1 (configuration not stated)
Out: True

In: Dear colleague, could you share the recorded outcome for CN=C(NC#N)NCCSCc1nc[nH]c1C when you have a moment?
Out: False

In: Check the results log: what was the call for Nc1nc(N)c2nc(-c3ccccc3)c(N)nc2n1 ?
Out: False
